Ref: the nanobody polyreactivity screen of Harvey et al. (2022)

Assay: yeast display, Sf9 membrane polyspecificity reagent, FACS + sequencing; frameworks hold sequencing errors
recorded endpoint: polyreactivity (PSR sort gate)

INSERT INTO results (macromolecule_sequence, result) VALUES
  ('QVQLVESGGGLVQAGGSLRLSCAASGRNFKFYAMGWYRQAPGKERELVAGINTDGGSTYYADSVKGRFTISRDNAKNTVYLQMNSLKPEDTAVYYCNAYYYKPARKYARHYDYWGQGTQVTVSS', 'low polyreactivity'),
  ('QVQLVESGGGLVQAGGSLRLSCAASGRIFTKYAMGWYRQAPGKERELVAAITTSGGSTYYADSVKGRFTISRDNAKNTVYLQMNSLKPEDTAVYYCAARTYHRYDYWGQGTQVTVSS', 'high polyreactivity'),
  ('QFQLVESGGGLVQPGGSLRLSCAASGGIFKRYAIGWYRQAPGKERELVAGISRRSGRTYYADSVKGRFTISRDNAKNTVYLQMNSLKPEDTAVFYCAARGIGGYDYWGHGTQVTVSS', 'high polyreactivity'),
  ('QVQLVESGVGLVQAGGSLRLSCASSGLTFNYYAIGWYRQAPGKERELVAAISSDGRTDYADSVKGRFTISRDNAKNTVYLQMNSLKPEDTAFYSCAVEYQSPDDYWGQGTQVTVSS', 'low polyreactivity'),
  ('QVQLVESGGGLVQAGGSLRLSCAASGSTFNHNAMGWYRQAPGKERELVAAITSGTSTYYADSVKGRFTISRDNAKNTVYLQMNSLKPEDTAVYYCAADSPWGGGYFVLYNYWGQGTQVTVSS', 'low polyreactivity'),
  ('QVQLVESGGGLVQAGGSLRLSCAASGIIFSINAMGWYRQAPGKERELVAAISRSGGSTNYADSVKGRFTISRDNAKNTVYLQMNSLKPEDTAVYYCATVHRYSVWSHNYWGQGTQVTVSS', 'high polyreactivity'),
  ('QVQLVESGGGLVQAGGSLSLSCAASGRIFRYNAMGWYRQAPGKERELVAGINGRSGSTTYADSVKGRFTISRDNAKNTVYLQMNSLKPEDTAVYYCAIVYGGYHYAFRSSRGMGYWGQGTQVTVSS', 'high polyreactivity'),
  ('QVQLVESGGGLVQAGGSLRLSCAASGSPFGDSAMGWYRQAPGKERELVAAISVYGASTYYADSVKGRFTISRDNAKNTVYLHMNSLKPEDTEVYYCAATYDTIGDSWGQGTQVTVSS', 'low polyreactivity'),
  ('QVQLQESGGGLVQAGGILRLSCAASGPISRRSTMGWYRQAPGKERELVTAITRGTNTNYADSVKGRFTISRDNAKNTEYLQMNSLKPEDTAVYYCAAYGVLKPYRGDAVFHRYWGQGTQVTVSS', 'low polyreactivity'),
  ('QDQLVESCGGLVQAGGSLRLICAAYGRIISINAMGWYRQAPVKERELVATISWRGGSTYYADSVKGRFTISRDNAKNTVYLQMNSLKPEDTAVYYCKKVFSERWARYFRYDYWVQGTQVTVSS', 'high polyreactivity'),
  ('QVQLVESRGVLDQARGSLRLSCAATGSIFKPYAMGWYRQEPGKEMELVAAISGIGGSTYYADSVKGRFTIARDNAKNTVYLQMNSLKPEVTAVYYCAALTGFYNLRPYGYWGQGTQVTVSS', 'high polyreactivity'),
  ('QGHLVESGGGLVQAGGSLRLSCAASGITLTRYAMGWYRQAPWKERELVAAISTGGGSTYYADSVKGRFTFSRDNAKNTVYLQMNSLKPEDTAVYYCAARIRFARGYPITRTYDYWGQGTQVTVSS', 'high polyreactivity'),
  ('QVQLVQSGGGLVQAGGSLRLSCAASGFIIWDNAMGCYRQAPGKERELVAAISDSGGDTYYADSVKGRFTISRDNAKNTVYLQMNSLKPEDTAVYYCASDVELWVFRGDQYDYWGQGTQVTVSS', 'low polyreactivity'),
  ('QVQLVESGGGLVQAGGSLRLSCAASGSTFKYYAMGWYRQAAGKERELVATITRRSGSTYYADSVKGRFTISRDNAKNTVYLQMNSLKPEDTAVYYCNAYGPYKYNYWGQGTQVTVSS', 'high polyreactivity'),
  ('QVQLVESGGGLVQAGGSLRLSCAASGSTFSYYGMGWSRQAPGKERELVAAISWSGGSTYYADSVKGRFTISRDNAKNTVYLQMNSLKPEDTAVYYCARLDSAAEPRQYDYWGQGTQVTVSS', 'high polyreactivity'),
  ('QVQLVESGAGLVQAGGSLRLSCSASGRTFPGYAMGWYRQAPGKERELVATISSADSTNYADSVKGRFTISRDNGKNTVYLQMNSLKAEDTAVYYCAKRYGRNGAAAQYTGGYRYDYWGQGTQVSVSS', 'low polyreactivity'),
  ('QVQLVESGVCLVQAGGSLRLSCAATGFTIKYYAMGWYRQPPGKEMELVAAISWTGANTYYADSVKGRFTISRDNAKNTVYLQMNSLKPDYTAVYYCAAGYLIGHSVRTTVRTIYEYWGQGTQVTVSS', 'high polyreactivity'),
  ('QVQLVESGGGLVQAGGILRLSCAASGSIFAYYAMGWYRQAPGKERELVAAIDSGGGTSYADSVKGRFTISRDNAKNTVYLQMNRLKPEDTAVYYCNAAGYVVYYRIIAFGYWGQGTQVTVSS', 'low polyreactivity'),
  ('QGQLVESGGGLVQAGGSLRLSCAASGSIFSHYAMGWYRQAPGKEMELVAAISRSGGSTYYADSVKGRFTISRDNAKNTVYLQMNCLKPEDTAVYYCAKEGDSGYWFDYWGQGTQVTVSS', 'low polyreactivity'),
  ('QVQLVESGGRLVQSGGSLRLSCAASGNTFIPNAMGWYRQAPGKERELVAAIRASGGSTYYADSVKGRFTISRDNAKNTVYLQMNSLKPEDTAVYYCNADIWYKTYDYWGQGTQVTVSS', 'low polyreactivity'),
  ('QVQLVESGGGLVQAGGSLRLSCAASGRIFKRNVMGWYRQAPGKERELVAAIRYSGGNTYYADSVKGRFTISRDNAKNTVYLQMNSLKPEDTAVYYCAAQQWSYTQSRLYDMGYWGQGTQVTVSS', 'high polyreactivity');
